- target-or-system: somatostatin receptor SSTR3 (Human, UniProt P32745 1-418)
- Sequence (P32745 whole entry): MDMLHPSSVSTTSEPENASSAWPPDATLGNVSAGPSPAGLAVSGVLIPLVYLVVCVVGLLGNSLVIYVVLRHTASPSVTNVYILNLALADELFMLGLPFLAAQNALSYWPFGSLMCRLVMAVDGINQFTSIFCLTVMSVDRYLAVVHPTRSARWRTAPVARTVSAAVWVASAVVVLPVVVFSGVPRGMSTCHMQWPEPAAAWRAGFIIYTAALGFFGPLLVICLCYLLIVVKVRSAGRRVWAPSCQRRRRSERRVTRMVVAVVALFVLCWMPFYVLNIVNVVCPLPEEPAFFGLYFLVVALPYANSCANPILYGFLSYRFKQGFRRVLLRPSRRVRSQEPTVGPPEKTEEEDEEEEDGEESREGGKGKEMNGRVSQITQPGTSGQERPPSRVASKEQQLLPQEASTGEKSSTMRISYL
- test-protocol: competitive radioligand binding
Positions of bridges follow the written chain, without caps; N, C: chain ends. No end group written: not given here. *: point of attachment. Biotin = O=C1N[C@H]2[C@H](CS[C@H]2CCCCC(=O)*)N1
test-readout: Ki (nM)
Please respond with the number in nM and leave the unit unwritten.

Returns the measured Ki for the input binder. Input: Biotin-C(disialo sugar chain)ANSNPAMAPRERKAGCKNFFWKTFTSC (disulfide 17-28) [Biotin-S1C(disialo)-SRIF28] 1
